FYI, the data here is from PubChem BioAssay AID2060903.

IC50 by entry:
Test system: 377384-186-R-J1-PDC complex spheroid viability
Test: Anticancer human tumor 377384-186-R-J1-PDC patient-derived pancreatic carcinoma cell line growth inhibition [RAS]
Conditions: curve of first compound; second compound 0.316 µM

| molecule | IC50 |
| --- | --- |
| C[C@@H](NC(=O)c1ncnc(N)c1Cl)c1ncc(C(=O)Nc2cc(C(F)(F)F)c(Cl)cn2)s1 + C#Cc1c(F)ccc2cc(O)cc(-c3ncc4c(N5CC6CCC(C5)N6)nc(OCC56CCCN5CC(F)C6)nc4c3F)c12 | < 31.6 nM |

Here is the next item to consider.
Task: Which IC50 is listed for CCC(CC)c1cc(NC2CCC(N)C2)n2nccc2n1 (stereo not given) + C=CC(=O)N1CCN(c2nc(OCC3CCCN3C)nc3c(F)c(-c4nc(N)cc(C)c4C(F)(F)F)c(Cl)cc23)C(C)C1 ?
Result: 1720 nM

* * *

Tested on: 377384-186-R-J1-PDC complex spheroid viability
Test: Anticancer human tumor 377384-186-R-J1-PDC cell line growth inhibition [RAS];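 also: spheroids exposed to compounds for seven days before readout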
Details: second compound 0.3 µM; first compound 0.316 µM; stronger effect = lower value
viability, T/C for assorted compounds

| compound | viability, T/C |
| --- | --- |
| CC(=O)OC12COC1CC(O)C1(C)C(=O)C(O)C3=C(C)C(OC(=O)C(O)C(NC(=O)OC(C)(C)C)c4ccccc4)CC(O)(C(OC(=O)c4ccccc4)C21)C3(C)C (stereo not drawn) + CCn1c(-c2cc(N3CCN(C)CC3)cnc2C(C)OC)c2c3cc(ccc31)-c1csc(n1)CC(NC(=O)C1CC1C)C(=O)N1CCCC(N1)C(=O)OCC(C)(C)C2 | 2.82% |
| Nc1ccn(C2OC(CO)C(O)C2(F)F)c(=O)n1 (stereo not drawn) + CCn1c(-c2cccnc2C(C)OC)c2c3cc(ccc31)N1CCOC(CC(NC(=O)C(C(C)C)N(C)C(=O)C3(F)CCN(C(=O)C#CC(C)(C)N(C)C)CC3)C(=O)N3CCCC(N3)C(=O)OCC(C)(C)C2)C1 | 4.01% |
| C[C@@H](NC(=O)c1ncnc(N)c1Cl)c1ncc(C(=O)Nc2cc(C(F)(F)F)c(Cl)cn2)s1 + CCn1c(-c2cc(N3CCN(C)CC3)cnc2C(C)OC)c2c3cc(ccc31)-c1csc(n1)CC(NC(=O)C1CC1C)C(=O)N1CCCC(N1)C(=O)OCC(C)(C)C2 | 2.7% |
| NC1c2ccccc2OC12CCN(c1cnc3c(N4CCCc5ncccc54)n[nH]c3n1)CC2 (stereo not drawn) + CCn1c(-c2cccnc2C(C)OC)c2c3cc(ccc31)N1CCOC(CC(NC(=O)C(C(C)C)N(C)C(=O)C3(F)CCN(C(=O)C#CC(C)(C)N(C)C)CC3)C(=O)N3CCCC(N3)C(=O)OCC(C)(C)C2)C1 | 59.4% |

Task: # query: viability, T/C | item CCC(CC)c1cc(NC2CCC(N)C2)n2nccc2n1 (stereo not drawn) + CCn1c(-c2cc(N3CCN(C)CC3)cnc2C(C)OC)c2c3cc(ccc31)-c1csc(n1)CC(NC(=O)C1CC1C)C(=O)N1CCCC(N1)C(=O)OCC(C)(C)C2 | system: 377384-186-R-J1-PDC complex spheroid viability
Result: 1.75%

Task: Report viability, T/C for C=CC(=O)Nc1cc(Nc2nccc(-c3cn(C)c4ccccc34)n2)c(OC)cc1N(C)CCN(C)C + CCn1c(-c2cc(N3CCN(C)CC3)cnc2C(C)OC)c2c3cc(ccc31)-c1csc(n1)CC(NC(=O)C1CC1C)C(=O)N1CCCC(N1)C(=O)OCC(C)(C)C2 tested on 377384-186-R-J1-PDC complex spheroid viability.
Result: 1.28%

Task: Give viability, T/C (377384-186-R-J1-PDC complex spheroid viability) of the following compound: CC(Nc1ccc2c(c1)OCCn1cc(N3C(=O)OCC3C(F)F)nc1-2)C(N)=O (stereo not drawn) + CCn1c(-c2cccnc2C(C)OC)c2c3cc(ccc31)N1CCOC(CC(NC(=O)C(C(C)C)N(C)C(=O)C3(F)CCN(C(=O)C#CC(C)(C)N(C)C)CC3)C(=O)N3CCCC(N3)C(=O)OCC(C)(C)C2)C1
Result: 35.8%

Task: Checklist item: viability, T/C tested on 377384-186-R-J1-PDC complex spheroid viability, entry CCN1CCN(Cc2ccc(Nc3ncc(F)c(-c4cc(F)c5nc(C)n(C(C)C)c5c4)n3)nc2)CC1 + CCn1c(-c2cccnc2C(C)OC)c2c3cc(ccc31)N1CCOC(CC(NC(=O)C(C(C)C)N(C)C(=O)C3(F)CCN(C(=O)C#CC(C)(C)N(C)C)CC3)C(=O)N3CCCC(N3)C(=O)OCC(C)(C)C2)C1 , value?
Result: 34.5%

* * *

Test system: 377384-186-R-J1-PDC complex spheroid viability
Assay: Anticancer human tumor 377384-186-R-J1-PDC cell line growth inhibition [RAS];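 also: spheroids exposed to compounds for seven days before readout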
Conditions: second compound 0.03 µM; first compound 0.000949 µM; stronger effect = lower value
Examples of compounds with documented viability, T/C follow.
Return type: number; implicit unit %.

Look over these answered cases.
| compound | numeric result |
| --- | --- |
| CC1(C)CCC(Nc2ncc(C(F)(F)F)c(-c3c[nH]c4c(P(C)(C)=O)c(C#N)ccc34)n2)CN1 (centres undefined) + CCn1c(-c2cccnc2C(C)OC)c2c3cc(ccc31)N1CCOC(CC(NC(=O)C(C(C)C)N(C)C(=O)C3(F)CCN(C(=O)C#CC(C)(C)N(C)C)CC3)C(=O)N3CCCC(N3)C(=O)OCC(C)(C)C2)C1 | 85.2 |
| CCc1c2c(nc3ccc(O)cc13)-c1cc3c(c(=O)n1C2)COC(=O)[C@]3(O)CC + CCn1c(-c2cccnc2C(C)OC)c2c3cc(ccc31)N1CCOC(CC(NC(=O)C(C(C)C)N(C)C(=O)C3(F)CCN(C(=O)C#CC(C)(C)N(C)C)CC3)C(=O)N3CCCC(N3)C(=O)OCC(C)(C)C2)C1 | 61.3 |
| CC1(C)CCC(Nc2ncc(C(F)(F)F)c(-c3c[nH]c4c(P(C)(C)=O)c(C#N)ccc34)n2)CN1 (centres undefined) + CCn1c(-c2cc(N3CCN(C)CC3)cnc2C(C)OC)c2c3cc(ccc31)-c1csc(n1)CC(NC(=O)C1CC1C)C(=O)N1CCCC(N1)C(=O)OCC(C)(C)C2 | 2.48 |

Consider now this further compound.
Task: Tell me reported viability, T/C for CCc1c2c(nc3ccc(O)cc13)-c1cc3c(c(=O)n1C2)COC(=O)[C@]3(O)CC + CCn1c(-c2cc(N3CCN(C)CC3)cnc2C(C)OC)c2c3cc(ccc31)-c1csc(n1)CC(NC(=O)C1CC1C)C(=O)N1CCCC(N1)C(=O)OCC(C)(C)C2 , tested with 377384-186-R-J1-PDC complex spheroid viability.
Result: 2.43

* * *

Tested on: 377384-186-R-J1-PDC complex spheroid viability
Test: Anticancer human tumor 377384-186-R-J1-PDC cell line growth inhibition [RAS];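 also: spheroids exposed to compounds for seven days before readout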
Settings: second compound 0.316 µM; first compound 1 µM; stronger effect = lower value
result type: viability, T/C

| compound | viability, T/C |
| --- | --- |
| CCC(CC)c1cc(NC2CCC(N)C2)n2nccc2n1 (stereo not given) + C#Cc1c(F)ccc2cc(O)cc(-c3ncc4c(N5CC6CCC(C5)N6)nc(OCC56CCCN5CC(F)C6)nc4c3F)c12 | 4.23% |
| C[C@@H](NC(=O)c1ncnc(N)c1Cl)c1ncc(C(=O)Nc2cc(C(F)(F)F)c(Cl)cn2)s1 + C#Cc1c(F)ccc2cc(O)cc(-c3ncc4c(N5CC6CCC(C5)N6)nc(OCC56CCCN5CC(F)C6)nc4c3F)c12 | 9.52% |
| C=CC(=O)N1CCN(c2nc(OCC3CCCN3C)nc3c(F)c(-c4nc(N)cc(C)c4C(F)(F)F)c(Cl)cc23)C(C)C1 (stereo not given) + C#Cc1c(F)ccc2cc(O)cc(-c3ncc4c(N5CC6CCC(C5)N6)nc(OCC56CCCN5CC(F)C6)nc4c3F)c12 | 2.79% |
| Nc1ccn(C2OC(CO)C(O)C2(F)F)c(=O)n1 (stereo not given) + C#Cc1c(F)ccc2cc(O)cc(-c3ncc4c(N5CC6CCC(C5)N6)nc(OCC56CCCN5CC(F)C6)nc4c3F)c12 | 1.47% |

Next up:
Task: So what viability, T/C did CC(=O)OC12COC1CC(O)C1(C)C(=O)C(O)C3=C(C)C(OC(=O)C(O)C(NC(=O)OC(C)(C)C)c4ccccc4)CC(O)(C(OC(=O)c4ccccc4)C21)C3(C)C (stereo not given) + C#Cc1c(F)ccc2cc(O)cc(-c3ncc4c(N5CC6CCC(C5)N6)nc(OCC56CCCN5CC(F)C6)nc4c3F)c12 get with 377384-186-R-J1-PDC complex spheroid viability?
Result: 2.01%

* * *

Test system: 377384-186-R-J1-PDC complex spheroid viability
Assay: Anticancer human tumor 377384-186-R-J1-PDC cell line growth inhibition [RAS];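 also: spheroids exposed to compounds for seven days before readout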
Conditions: second compound 0.0316 µM; first compound 0.1 µM; stronger effect = lower value
Recorded viability, T/C, one value per entry.

| molecule | result |
| --- | --- |
| Cc1nc(N2CCC3(CC2)COC(C)C3N)c(CO)nc1Sc1ccnc(N)c1Cl (stereo not given) + C#Cc1c(F)ccc2cc(O)cc(-c3ncc4c(N5CC6CCC(C5)N6)nc(OCC56CCCN5CC(F)C6)nc4c3F)c12 | 5.6% |
| CC(Nc1ccc2c(c1)OCCn1cc(N3C(=O)OCC3C(F)F)nc1-2)C(N)=O (stereo not given) + C#Cc1c(F)ccc2cc(O)cc(-c3ncc4c(N5CC6CCC(C5)N6)nc(OCC56CCCN5CC(F)C6)nc4c3F)c12 | 14.3% |
| C=CC(=O)Nc1cc(Nc2nccc(-c3cn(C)c4ccccc34)n2)c(OC)cc1N(C)CCN(C)C + C=CC(=O)N1CCN(c2nc(OCC3CCCN3C)nc3c(F)c(-c4nc(N)cc(C)c4C(F)(F)F)c(Cl)cc23)C(C)C1 | 79.1% |
| O=C(c1ccc(F)c(F)c1Nc1ccc(I)cc1F)N1CC(O)([C@@H]2CCCCN2)C1 + C=CC(=O)N1CCN(c2nc(OCC3CCCN3C)nc3c(F)c(-c4nc(N)cc(C)c4C(F)(F)F)c(Cl)cc23)C(C)C1 | 20% |
| Cc1nc(N2CCC3(CC2)COC(C)C3N)c(CO)nc1Sc1ccnc(N)c1Cl (stereo not given) + C=CC(=O)N1CCN(c2nc(OCC3CCCN3C)nc3c(F)c(-c4nc(N)cc(C)c4C(F)(F)F)c(Cl)cc23)C(C)C1 | 80.7% |
| CCC(CC)c1cc(NC2CCC(N)C2)n2nccc2n1 (stereo not given) + C=CC(=O)N1CCN(c2nc(OCC3CCCN3C)nc3c(F)c(-c4nc(N)cc(C)c4C(F)(F)F)c(Cl)cc23)C(C)C1 | 88.6% |
| C=CC(=O)N1CCN(c2nc(OCC3CCCN3C)nc3c(F)c(-c4nc(N)cc(C)c4C(F)(F)F)c(Cl)cc23)C(C)C1 (stereo not given) + C#Cc1c(F)ccc2cc(O)cc(-c3ncc4c(N5CC6CCC(C5)N6)nc(OCC56CCCN5CC(F)C6)nc4c3F)c12 | 20.3% |
| Nc1ccn(C2OC(CO)C(O)C2(F)F)c(=O)n1 (stereo not given) + C#Cc1c(F)ccc2cc(O)cc(-c3ncc4c(N5CC6CCC(C5)N6)nc(OCC56CCCN5CC(F)C6)nc4c3F)c12 | 2.32% |

Task: What does the record list as viability, T/C for CC1(O)CCCC1n1c(=O)c(C(F)F)cc2cnc(NC3CCN(S(C)(=O)=O)CC3)nc21 (stereo not given) + C=CC(=O)N1CCN(c2nc(OCC3CCCN3C)nc3c(F)c(-c4nc(N)cc(C)c4C(F)(F)F)c(Cl)cc23)C(C)C1 ?
Result: 49%

Task: What value of viability, T/C has been reported for the following molecule? C[C@@H](NC(=O)c1ncnc(N)c1Cl)c1ncc(C(=O)Nc2cc(C(F)(F)F)c(Cl)cn2)s1 + C=CC(=O)N1CCN(c2nc(OCC3CCCN3C)nc3c(F)c(-c4nc(N)cc(C)c4C(F)(F)F)c(Cl)cc23)C(C)C1
Result: 87.8%
